Here the recorded IC50, SBE-luciferase reporter in HEK293 cells is given for each entry.
# test_target: T1, GDF-11 (UniProt O95390 299-407)
# T1 sequence (looked up): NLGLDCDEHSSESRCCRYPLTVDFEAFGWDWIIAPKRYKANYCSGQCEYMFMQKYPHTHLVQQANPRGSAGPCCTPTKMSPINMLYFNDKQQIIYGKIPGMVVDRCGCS
# test_protocol: cell-based or functional assay
experimental_endpoint: IC50, SBE-luciferase reporter in HEK293 cells

* ActRIIA-B3 (SEQ ID NO: 97) chimera-Fc protein (Fc fusion, Tested as chimera-Fc protein; not shown: linker (if any) and Fc domain) GAILGRSETQECLFFNANWEKDRTNQTGVEPCYGDKDKRLHCYASWRNSSGSIEIVKQGCWLDDINCYDRTDCVEKKDSPEVYFCCCEGNMCNEKFSYFPEMEVTQPTS | 0.13 µg/mL
* ActRIIA-A8 (SEQ ID NO: 110) chimera-Fc protein (Fc fusion, Tested as chimera-Fc protein; not shown: linker (if any) and Fc domain) GAILGRSETQECLFFNANWEKDRTNQTGVEPCYGDKDKRRHCFATWKNISGSIEIVKQGCWLDDINCYDRTDCVEKKDSPEVYFCCCEGNMCNEKFSYFPEAGGPEVTYEPPPTAPT | 0.18 µg/mL
